- assaySummary: stimulators of nuclear beta-catenin in C2C12, primary screen, imaging, WNT3A-conditioned medium, mouse C2C12, NPC library (AID 1117326); also: reference of the scale not given here
- conditionNotes: stimulation, at 2 µM, stronger effect = higher value
readoutName: nuclear beta-catenin stimulation (%)
Just the number please, in %, no unit attached.

State the recorded nuclear beta-catenin stimulation for this entry: N[C@@H](COP(=O)(O)O)C(=O)O
14.5

Item under review: COc1ccc(O)cc1 . Reported nuclear beta-catenin stimulation?
0.5

Which nuclear beta-catenin stimulation is reported for this compound? Cc1cccn2c(=O)c(-c3nnn[nH]3)cnc12
1.7

Would you mind telling me what nuclear beta-catenin stimulation value was observed for O=C1c2ccccc2S(=O)(=O)N1CCCCN1CCN(c2ncccn2)CC1 ?
1.3

May I ask what nuclear beta-catenin stimulation has been recorded for CC(=O)N[C@H]1[C@H]([C@H](O)[C@H](O)CO)OC(C(=O)O)=C[C@@H]1N=C(N)N ?
0.5

Quick check: nuclear beta-catenin stimulation of COC(=O)CCCCC(CCSS/C(CCO)=C(\C)N(C=O)Cc1cnc(C)nc1N)SC(C)=O (configuration not stated) ?
-1

GET /values?readout=nuclear beta-catenin stimulation&item= O=C(O)[C@H](O)[C@@H](O)[C@H](O[C@@H]1O[C@H](CO)[C@H](O)[C@H](O)[C@H]1O)[C@H](O)CO
-0.6

Quick one: nuclear beta-catenin stimulation of CCCCCCCCCCCCCCC[C@H](O)[C@@H](N)CO ?
1.5

Would you kindly share the measured nuclear beta-catenin stimulation for C[C@H](NCCc1ccc(O)cc1)[C@H](O)c1ccc(O)cc1 ?
-0.2

Quick one: nuclear beta-catenin stimulation of NCCNCCNCCN ?
0.7

What nuclear beta-catenin stimulation value was documented for this compound, CC(=O)CC(c1ccc([N+](=O)[O-])cc1)c1c(O)c2ccccc2oc1=O (configuration not stated) ?
-1.3

Look up nuclear beta-catenin stimulation: C[C@@H](CN1CC(=O)NC(=O)C1)N1CC(=O)NC(=O)C1
13.9

If you can, please state the reported nuclear beta-catenin stimulation value of CC(C)COC(=O)c1ccc(N)cc1 .
0.4

Fill in: nuclear beta-catenin stimulation of N=c1nc(N2CCCCC2)cc(N)n1O is ___
8.6

Look at this compound and give its reported nuclear beta-catenin stimulation. Cc1cc2c(OCC(CNC(C)(C)C)OC(=O)c3ccccc3)cccc2[nH]1 (configuration not stated)
-2.3

# query: nuclear beta-catenin stimulation of entry CC(=O)Nc1c(I)c(NC(C)=O)c(I)c(C(=O)O)c1I
7.7

GET /values?readout=nuclear beta-catenin stimulation&item= NC(=O)C1(N2CCCCC2)CCN(CCCC(=O)c2ccc(F)cc2)CC1
-2

Returns the measured nuclear beta-catenin stimulation for the input compound. Input: O=C(Nc1ccccc1)OCC(CN1CCCCC1)OC(=O)Nc1ccccc1 (configuration not stated)
-0.9

Return reported nuclear beta-catenin stimulation; argument: CC[C@H](C)[C@H](N)C(=O)O
4.3

Item CCCCCCCCCCCCCCCCCCOP(=O)([O-])OC1CC[N+](C)(C)CC1 has what recorded nuclear beta-catenin stimulation?
-1

Which nuclear beta-catenin stimulation reading was recorded for the compound NC(=O)c1ncn([C@@H]2O[C@H](CO)[C@@H](O)[C@H]2O)c1N ?
1.8

Look up nuclear beta-catenin stimulation: CC1CCC(C(C)C)C(OC(=O)c2ccccc2O)C1 (configuration not stated)
-2.6

Request the reported nuclear beta-catenin stimulation associated with Cc1cc(=O)c2c(O)c3c(O)cc(=O)c4c3c3c(cc(O)c1c23)C(C)(C)C=4O
68.1

Fill blank: measured nuclear beta-catenin stimulation of the compound CN1C(=O)CC(c2ccccc2)C1=O (configuration not stated) is ____.
0.3

Value lookup for nuclear beta-catenin stimulation; key = CCCn1cnc2c1c(=O)n(CCCCC(C)=O)c(=O)n2C
-0.2

Consider the compound shown here: COc1cc(C(=O)NCCCCCC(=O)O)cc(OC)c1OC What is its recorded nuclear beta-catenin stimulation?
-2.6

Fill in the blank: the reported nuclear beta-catenin stimulation of Cc1nc(Nc2ncc(C(=O)Nc3c(C)cccc3Cl)s2)cc(N2CCN(CCO)CC2)n1 is ____.
65.2

Which nuclear beta-catenin stimulation value is on record for O=C(CCCl)NCCc1ccccc1 ?
0.2

Using the record for COc1ccc(-c2cc(=S)ss2)cc1 , report its nuclear beta-catenin stimulation.
-0.3

# get_value(readout='nuclear beta-catenin stimulation', item= C[C@]12CCC(=O)C=C1CC[C@@H]1[C@@H]2CC[C@@]2(C)[C@H]1CC[C@]2(O)C(=O)CO )
-0.1

Form field: reported nuclear beta-catenin stimulation of Cc1cc(=O)oc2cc(O)ccc12
-0.4

Fill in: nuclear beta-catenin stimulation of NCCCNCCSP(=O)(O)O is ___
0.9

Find the recorded nuclear beta-catenin stimulation belonging to CC(=O)N(CC(O)CN(C(C)=O)c1c(I)c(C(=O)NCC(O)CO)c(I)c(C(=O)NCC(O)CO)c1I)c1c(I)c(C(=O)NCC(O)CO)c(I)c(C(=O)NCC(O)CO)c1I (configuration not stated) and report it.
1.9

Can you look up the measured nuclear beta-catenin stimulation of COCCOCC(OC)OC for me?
10.8

Looking for the measured nuclear beta-catenin stimulation of COc1ccc(-n2nc(CCC(=O)N(C)O)cc2-c2ccc(Cl)cc2)cc1 , can you help?
0.2

Request the reported nuclear beta-catenin stimulation associated with OCCN1CCN(CC/C=C2/c3ccccc3Sc3ccc(C(F)(F)F)cc32)CC1
14.5

Using the record for O=c1[nH]c(=O)n([C@H]2C[C@H](O)[C@@H](CO)O2)cc1Br , report its nuclear beta-catenin stimulation.
-1.1

Which nuclear beta-catenin stimulation value is on record for CCC1C(=O)OCC1Cc1cncn1C (configuration not stated) ?
20

Please give the measured nuclear beta-catenin stimulation for this compound: CCCCCCOC(=O)NC(=N)c1ccc(NCc2nc3cc(C(=O)N(CCC(=O)OCC)c4ccccn4)ccc3n2C)cc1
2.3

Given the compound Cc1nnc(C(=O)NC(C)(C)c2nc(C(=O)NCc3ccc(F)cc3)c(O)c(=O)n2C)o1 , what is its reported nuclear beta-catenin stimulation?
0.5

Look up nuclear beta-catenin stimulation for this compound: CCCCc1cc2ccccc2c(OCCN(C)C)n1
-0.1

Need nuclear beta-catenin stimulation of CCOc1ccccc1OCC1CNCCO1 (configuration not stated) , thanks.
-0.3

Could you tell me which nuclear beta-catenin stimulation is on file for O=C(OOC(=O)c1ccccc1)c1ccccc1 ?
0.3

Report nuclear beta-catenin stimulation for COc1nccnc1NS(=O)(=O)c1ccc(N)cc1 please.
3.9

Please report the recorded nuclear beta-catenin stimulation for O=c1[nH]c(=O)n([C@H]2CCCO2)cc1F .
0.4

Given COc1ccc(C=CC(=O)Nc2ccccc2C(=O)O)cc1OC , state its recorded nuclear beta-catenin stimulation.
2.1

Which nuclear beta-catenin stimulation is reported for this compound? CC(=O)N(CC(O)CO)c1c(I)c(C(=O)NCCO)c(I)c(C(=O)NCC(O)CO)c1I (configuration not stated)
0.7

====

- assaySummary: polyglutamine-triggered caspase-3 activation inhibitors, cell-based (AID 1583)
- conditionNotes: polyglutamine-induced caspase-3 activation, cell assay; stronger effect = higher value; concentration not given here
Bridge positions count the residues as written; N and C are the ends. Square brackets hold non-standard residues; d marks the D form. Peptide text beside a SMILES is read from it. * marks the point of attachment. Octanoyl(6-Me) = CCC(C)CCCCC(=O)*; Dab = NCC[CH](N)C(=O)O
Could you please report measured inhibition for the items listed next?
Write the answer as a number in %, unit excluded.

Please give the measured inhibition for this compound: C=NC(C(=O)NC1C(=O)N2C1SC(C)(C)C2C(=O)O)c1ccccc1 (centres undefined)
15.2

Given the compound C[N+](C)(C)CCO , what is its reported inhibition?
2.29

Query: inhibition; subject: COc1c2occc2cc2ccc(=O)oc12
18.6

Entry CC(C)NCC(O)COc1cccc2[nH]ccc12 (centres undefined) : reported inhibition = ?
-39.9

For C[N+](C)(C)CC(O)CC(=O)O (centres undefined) , what is its reported inhibition?
0.15

Could you tell me which inhibition is on file for Cn1c(=O)c2[nH]c(C3CCCC3)nc2n(C)c1=O ?
24.6

# inhibition lookup, item O=C(/C=C/C=C/c1ccc2c(c1)OCO2)N1CCCCC1
-11.5

Return reported inhibition; argument: CC(=O)c1c(O)c(C)c(O)c2c1OC1=CC(=O)C(C(C)=O)C(=O)C12C (centres undefined)
59.1

Which inhibition is reported for this compound? CCOc1ccc2c(c1)C(C)=CC(C)(C)N2
14.7

Reported inhibition for CC(C)=CCc1c2c(c3occ(-c4ccc(O)c(O)c4)c(=O)c3c1O)C=CC(C)(C)O2 : what is it?
-8.52

Need inhibition of C[C@@H]1O[C@@H](O[C@H]2[C@H](Oc3cc(O)c4c(c3)O[C@H](c3ccc(O)cc3)CC4=O)O[C@H](CO)[C@@H](O)[C@@H]2O)[C@H](O)[C@H](O)[C@H]1O , thanks.
-1.5

Returns the measured inhibition for the input compound. Input: CC(C)OC(=O)C(C)(C)Oc1ccc(C(=O)c2ccc(Cl)cc2)cc1
-9.13

Entry Cc1ccc(/C(=C\CN2CCCC2)c2ccccn2)cc1 has what inhibition?
21.1

inhibition lookup needed for NCCCCN , thanks.
-6.18

Look at this compound and give its reported inhibition. CN(C)C(=O)C(CCN1CCC(O)(c2ccc(Cl)cc2)CC1)(c1ccccc1)c1ccccc1
18.5

Fill in: inhibition of CC(=O)N[C@@H](CC(=O)O)C(=O)N[C@@H](CCC(=O)O)C(=O)O (Ac-Asp-Glu-OH) is ___
12.9

// lookup inhibition for CN(C)c1nc(N(C)C)nc(N(C)C)n1
-2.79

Given the compound CN1C(=O)CC[C@H]1c1cccnc1 , what is its reported inhibition?
25.7

Which inhibition reading was recorded for the compound CC(C)Cn1c(=O)n(C)c(=O)c2[nH]cnc21 ?
10.7

// inhibition lookup, key: COC(=O)[C@H]1[C@H]2C[C@H]3c4[nH]c5ccccc5c4CCN3C[C@H]2CC[C@@H]1O
-11.7

Need inhibition of O=C(O)CN(CCN(CC(=O)O)CC(=O)O)CC(=O)O , thanks.
13.2

Which inhibition is reported for this compound? CN(C)CCOC(c1ccccc1)c1ccccc1 (tested in a mixture with another compound)
13

Query: inhibition; subject: CC/C(=C(\c1ccccc1)c1ccc(OCCN(C)C)cc1)c1ccccc1
22.9

Data request, read-out inhibition, for O=C1C=CC(=C(c2ccc(O)cc2)c2ccc(O)cc2)C=C1
28.5

# get_value(readout='inhibition', item= CN[C@H](CC(=O)O)C(=O)O )
0.95

Which inhibition value is on record for CC(C)(C)NCC(O)c1ccc(O)c(CO)c1 (centres undefined) ?
-4.84

inhibition lookup needed for Nc1ccc(S(=O)(=O)Nc2ncccn2)cc1 , thanks.
-24.3

I am curious: what inhibition value has been reported for CC(=O)NC(Cc1ccccc1)C(=O)O (centres undefined) ?
6.15

Given the entry NC(=O)c1ccc[n+]([C@@H]2O[C@H](COP(=O)([O-])OP(=O)(O)OC[C@H]3O[C@@H](n4cnc5c(N)ncnc54)[C@H](O)[C@@H]3O)[C@@H](O)[C@H]2O)c1 , report its measured inhibition.
7.61

Quick check: inhibition of CC1=C(/C=C/C(C)=C/C=C/C(C)=C/CO)C(C)(C)CCC1 ?
25.6

Which inhibition value is on record for CC(=O)N[C@@H](CC(C)C)C(=O)O ?
23.7

Name the recorded inhibition for CCC(C)CCCCC(=O)NC(CCN)C(=O)NC(C(=O)NC(CCN)C(=O)NC1CCNC(=O)C(C(C)O)NC(=O)C(CCN)NC(=O)C(CCN)NC(=O)C(CC(C)C)NC(=O)C(Cc2ccccc2)NC(=O)C(CCN)NC1=O)C(C)O (centres undefined) ({Octanoyl(6-Me)}-[Dab]T[Dab][Dab][Dab]FL[Dab][Dab]T; lactam 4-C; configuration not given here) .
15

Fill in the blank: the reported inhibition of CCC(c1ccc(O)cc1)C(CC)c1ccc(O)cc1 (centres undefined) is ____.
87.7

I'd like to know its inhibition. The compound in question is CC(C(=O)O)c1ccc(-c2ccccc2)c(F)c1 (centres undefined)
20.8

Report inhibition for Cc1cc(/C=C/c2ccc3cc(N(C)C)ccc3[n+]2C)c(C)n1-c1ccccc1 please.
21.2

// lookup inhibition for CN1CCc2cccc3c2C1Cc1ccc(O)c(O)c1-3 (centres undefined)
1.43

Request the reported inhibition associated with Cc1cc(NS(=O)(=O)c2ccc(N)cc2)no1
23.4

Which inhibition is listed for Cn1cc[nH]c1=S ?
14.9

I'd like to know its inhibition. The compound in question is Clc1cc(Cl)c(OCC#CI)cc1Cl
55.6

I am curious: what inhibition value has been reported for NC1=NCCN1CC(=O)O ?
26.8

# input compound: Cn1c(=O)[nH]c2ncn(C)c2c1=O ; wanted: its inhibition
15.7

What does the record list as inhibition for COc1ccc(/C=C/c2cc(O)cc(O[C@@H]3O[C@H](CO)[C@@H](O)[C@H](O)[C@H]3O)c2)cc1O ?
4.89

# get_value(readout='inhibition', item= CC(N)C(=O)NC(Cc1ccccc1)C(=O)O (centres undefined) )
17.1

Query: inhibition; subject: N[C@H](Cc1ccccc1)C(=O)O
15.8

Reference source for all entries: PubChem BioAssay
